exchange rate vs Pos peptide values by entry
system_tested: T1, HLA-B*08:01 (human, biotinylated heavy chain)
T1 construct: Conditional HLA class I complex first loaded with a UV-labile peptide, exchanged for the test peptide after UV; also called conditional HLA class I complex
test_details: UV peptide exchange + HLA class I ELISA
// units = %; emit number, no label

Known results for binders:
# lookup: exchange rate vs Pos peptide of NSKMALNSL [P35 9-mer peptide (TMPRSS2-ERG fusion)]
13.7

# lookup: exchange rate vs Pos peptide of FPVGAEGTF [P27 9-mer peptide (FAM126B-ORC2 fusion)]
6.4

Continue with the binder presented below.
# lookup: exchange rate vs Pos peptide of GVLRRLLCR [P37 9-mer peptide (TSTD1-F11R fusion)]
3.3
